Target: UniProt P10980
Sequence (P10980 whole entry): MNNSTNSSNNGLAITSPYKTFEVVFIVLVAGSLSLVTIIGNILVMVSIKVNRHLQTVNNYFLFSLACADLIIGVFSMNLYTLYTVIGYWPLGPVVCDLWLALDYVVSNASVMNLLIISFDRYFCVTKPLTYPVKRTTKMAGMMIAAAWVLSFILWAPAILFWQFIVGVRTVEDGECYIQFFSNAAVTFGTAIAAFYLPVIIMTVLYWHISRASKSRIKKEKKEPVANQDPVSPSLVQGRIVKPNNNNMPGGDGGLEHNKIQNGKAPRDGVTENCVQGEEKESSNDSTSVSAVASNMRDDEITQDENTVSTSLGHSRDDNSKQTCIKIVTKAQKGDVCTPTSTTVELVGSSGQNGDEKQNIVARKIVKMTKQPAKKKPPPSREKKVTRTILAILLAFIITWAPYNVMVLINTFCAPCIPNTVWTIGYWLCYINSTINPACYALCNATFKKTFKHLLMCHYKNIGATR
Experiment: Binding affinity to Muscarinic acetylcholine receptor M2 by measuring its ability to displace [3H]N-methylscopolamine binding in rat heart
Response field class: enum, chosen by comparing Ki against 0: < 6 µM; 1: ≥ 6 µM and < 10 µM; 2: ≥ 10 µM

compound="C#CC(C)ON=C1CC2CCC(C1)N2C (stereo not drawn)" class=1
compound=CC#CCON=C1CC2CCC(C1)N2C class=2
compound="C#CC(CC)ON=C1CC2CCC(C1)N2C (stereo not drawn)" class=1
compound=CN1C2CCC1CC(=NO)C2 class=2
compound=CON=C1CC2CCC(C1)N2C class=2
compound=CC#CCCON=C1CCN(C)CC1 class=2
compound="C#CC(C)ON=C1CCN(C)CC1 (stereo not drawn)" class=2
compound=CC#CCCON=C1CC2CCC(C1)N2C class=0
compound=CCC#CCON=C1CC2CCC(C1)N2C class=2
compound=O=C1CCCN1CC#CCN1CCCC1 class=0
compound=C#CCCON=C1CC2CCC(C1)N2C class=2
compound=C#CCCCON=C1CC2CCC(C1)N2C class=1
compound=C[N+](C)(C)CC#CCOC(=O)Nc1cccc(Cl)c1 class=1
compound=CON=C1CCN(C)CC1 class=2
compound="C#CCC(C)ON=C1CC2CCC(C1)N2C (stereo not drawn)" class=0

* * *

Reported Selectivity ratio values are given for each entry in this list.
Biological target: Muscarinic receptor M1 and M2 (Rattus norvegicus) (UniProt P08482+P10980)
Sequence (P08482 whole entry, looked up, one chain of several): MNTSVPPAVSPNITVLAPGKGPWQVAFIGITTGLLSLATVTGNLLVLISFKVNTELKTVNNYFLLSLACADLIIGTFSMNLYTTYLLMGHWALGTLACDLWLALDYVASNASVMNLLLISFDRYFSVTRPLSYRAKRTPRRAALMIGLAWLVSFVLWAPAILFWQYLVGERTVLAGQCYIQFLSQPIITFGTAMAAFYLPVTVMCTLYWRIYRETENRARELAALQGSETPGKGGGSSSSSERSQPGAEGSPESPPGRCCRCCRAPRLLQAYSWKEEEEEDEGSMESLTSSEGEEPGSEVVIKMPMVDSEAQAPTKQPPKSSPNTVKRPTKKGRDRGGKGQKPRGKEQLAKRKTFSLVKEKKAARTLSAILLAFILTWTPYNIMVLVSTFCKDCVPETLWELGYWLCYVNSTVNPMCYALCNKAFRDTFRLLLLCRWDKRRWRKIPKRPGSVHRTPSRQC
Assay: Inhibitory selectivity for Muscarinic receptors M2 and M1
Assay type: protein assay
endpoint.name: Selectivity ratio

compound=C#CCCCON=C1CC2CCC(C1)N2C test_system="Muscarinic receptor M1 and M2 (Rattus norvegicus) (UniProt P08482+P10980)" endpoint_name="Selectivity ratio" val=12
compound=CON=C1CC2CCC(C1)N2C test_system="Muscarinic receptor M1 and M2 (Rattus norvegicus) (UniProt P08482+P10980)" endpoint_name="Selectivity ratio" val=0.14
compound="C#CC(CC)ON=C1CC2CCC(C1)N2C (centres undefined)" test_system="Muscarinic receptor M1 and M2 (Rattus norvegicus) (UniProt P08482+P10980)" endpoint_name="Selectivity ratio" val=20
compound=CN1C2CCC1CC(=NO)C2 test_system="Muscarinic receptor M1 and M2 (Rattus norvegicus) (UniProt P08482+P10980)" endpoint_name="Selectivity ratio" val=0.74
compound="C#CCC(C)ON=C1CC2CCC(C1)N2C (centres undefined)" test_system="Muscarinic receptor M1 and M2 (Rattus norvegicus) (UniProt P08482+P10980)" endpoint_name="Selectivity ratio" val=16
compound=CC#CCCON=C1CCN(C)CC1 test_system="Muscarinic receptor M1 and M2 (Rattus norvegicus) (UniProt P08482+P10980)" endpoint_name="Selectivity ratio" val=7.5
compound="C#CC(C)ON=C1CC2CCC(C1)N2C (centres undefined)" test_system="Muscarinic receptor M1 and M2 (Rattus norvegicus) (UniProt P08482+P10980)" endpoint_name="Selectivity ratio" val=4.5
compound=CC#CCCON=C1CC2CCC(C1)N2C test_system="Muscarinic receptor M1 and M2 (Rattus norvegicus) (UniProt P08482+P10980)" endpoint_name="Selectivity ratio" val=4.5
compound=C#CCCON=C1CCN(C)CC1 test_system="Muscarinic receptor M1 and M2 (Rattus norvegicus) (UniProt P08482+P10980)" endpoint_name="Selectivity ratio" val=6.2
compound="C#CCC(C)ON=C1CCN(C)CC1 (centres undefined)" test_system="Muscarinic receptor M1 and M2 (Rattus norvegicus) (UniProt P08482+P10980)" endpoint_name="Selectivity ratio" val=2.9
compound="C#CC(CC)ON=C1CCN(C)CC1 (centres undefined)" test_system="Muscarinic receptor M1 and M2 (Rattus norvegicus) (UniProt P08482+P10980)" endpoint_name="Selectivity ratio" val=1.8
compound=CN1CCC(=NO)CC1 test_system="Muscarinic receptor M1 and M2 (Rattus norvegicus) (UniProt P08482+P10980)" endpoint_name="Selectivity ratio" val=0.9
compound=CCC#CCON=C1CCN(C)CC1 test_system="Muscarinic receptor M1 and M2 (Rattus norvegicus) (UniProt P08482+P10980)" endpoint_name="Selectivity ratio" val=4
compound="C#CC(C)ON=C1CCN(C)CC1 (centres undefined)" test_system="Muscarinic receptor M1 and M2 (Rattus norvegicus) (UniProt P08482+P10980)" endpoint_name="Selectivity ratio" val=2.2
compound=C[N+](C)(C)CC#CCOC(=O)Nc1cccc(Cl)c1 test_system="Muscarinic receptor M1 and M2 (Rattus norvegicus) (UniProt P08482+P10980)" endpoint_name="Selectivity ratio" val=1.4
compound=CCC#CCON=C1CC2CCC(C1)N2C test_system="Muscarinic receptor M1 and M2 (Rattus norvegicus) (UniProt P08482+P10980)" endpoint_name="Selectivity ratio" val=2.4
compound=CON=C1CCN(C)CC1 test_system="Muscarinic receptor M1 and M2 (Rattus norvegicus) (UniProt P08482+P10980)" endpoint_name="Selectivity ratio" val=0.74
compound=CC#CCON=C1CCN(C)CC1 test_system="Muscarinic receptor M1 and M2 (Rattus norvegicus) (UniProt P08482+P10980)" endpoint_name="Selectivity ratio" val=2
compound=CC#CCON=C1CC2CCC(C1)N2C test_system="Muscarinic receptor M1 and M2 (Rattus norvegicus) (UniProt P08482+P10980)" endpoint_name="Selectivity ratio" val=24
compound=C#CCON=C1CCN(C)CC1 test_system="Muscarinic receptor M1 and M2 (Rattus norvegicus) (UniProt P08482+P10980)" endpoint_name="Selectivity ratio" val=0.59
compound=C#CCCCON=C1CCN(C)CC1 test_system="Muscarinic receptor M1 and M2 (Rattus norvegicus) (UniProt P08482+P10980)" endpoint_name="Selectivity ratio" val=1.1
compound=O=C1CCCN1CC#CCN1CCCC1 test_system="Muscarinic receptor M1 and M2 (Rattus norvegicus) (UniProt P08482+P10980)" endpoint_name="Selectivity ratio" val=0.32
compound=C#CCON=C1CC2CCC(C1)N2C test_system="Muscarinic receptor M1 and M2 (Rattus norvegicus) (UniProt P08482+P10980)" endpoint_name="Selectivity ratio" val=4.2
compound=C#CCCON=C1CC2CCC(C1)N2C test_system="Muscarinic receptor M1 and M2 (Rattus norvegicus) (UniProt P08482+P10980)" endpoint_name="Selectivity ratio" val=19

The measured values listed here are drawn from ChEMBL document CHEMBL1131062.
